Tested on: LimF
ASSAY_NAME: His-prenylation of low molecular weight compounds, peptides and proteins by LimF
Assay type: biochemical, Limnothrix sp. CACIAM 69d
CONDITION_SET: 500 μM substrate, 100 μM LimF, 2 mM GPP, 20 hours, standard conditions
From the text: Next, various low molecular weight compounds, peptides, and proteins, including various compounds that have already been approved as pharmaceuticals, were subjected to His-prenylation facilitated by LimF.
QUANTITY: His-prenylation efficiency (LC/MS) (%)
A number alone suffices; assume %.

{"MOLECULE": "CCCC[C@H](NC(C)=O)C(=O)N[C@H]1CC(=O)NCCCC[C@@H](C(=O)O)NC(=O)[C@H](Cc2c[nH]c3ccccc23)NC(=O)[C@H](CCCN=C(N)N)NC(=O)[C@@H](Cc2ccccc2)NC(=O)[C@H](Cc2cnc[nH]2)NC1=O [Bremelanotide]", "UNIT_SPEC": "%", "His-prenylation efficiency (LC/MS)": 1}
{"MOLECULE": "CN/C(=N\\C#N)NCCSCc1nc[nH]c1C [Cimetidine, cimetidine]", "UNIT_SPEC": "%", "His-prenylation efficiency (LC/MS)": 97}
{"MOLECULE": "NC(=O)[C@@H]1CCCN1C(=O)[C@H](Cc1cnc[nH]1)NC(=O)[C@@H]1CCC(=O)N1 [TRH]", "UNIT_SPEC": "%", "His-prenylation efficiency (LC/MS)": 15}

Item CCNC(=O)[C@@H]1CCCN1C(=O)[C@H](CCCNC(=N)N)NC(=O)[C@H](CC(C)C)NC(=O)[C@@H](Cc1cn(Cc2ccccc2)cn1)NC(=O)[C@H](Cc1ccc(O)cc1)NC(=O)[C@H](CO)NC(=O)[C@H](Cc1c[nH]c2ccccc12)NC(=O)[C@H](Cc1cnc[nH]1)NC(=O)[C@@H]1CCC(=O)N1 [Histrelin] : provide His-prenylation efficiency (LC/MS)
99

###

Catalogue of His-prenylation efficiency (LC/MS) readings, one per entry.
System: LimF
ASSAY_NAME: His-prenylation of low molecular weight compounds, peptides and proteins by LimF
Type: biochemical, Limnothrix sp. CACIAM 69d
CONDITION_SET: 125 μM substrate, 100 μM LimF, 2 mM GPP, 20 hours, standard conditions
A number alone suffices; assume %.

Would you please look over these solved cases?
{"SUBSTANCE": "Pramlintide: analog of amylin (KCNTATCATQRLANFLVHSSNNFGPILPPTNVGSNTY; Pramlintide)", "MEASURED_ON": "LimF", "EXPERIMENTAL_VALUE": 99}
{"SUBSTANCE": "Teduglutide (HGDGSFSDEMNTILDNLAARDFINWLIQTKITD; chains of the INN, looked up)", "MEASURED_ON": "LimF", "EXPERIMENTAL_VALUE": 50}

Consider now this further substance.
Item Cyclo(-Ser-Asn-Leu-Ser-Thr-Asu)-Val-Leu-Gly-Lys-Leu-Ser-Gln-Glu-Leu-His-Lys-Leu-Gln-Thr-Tyr-Pro-Arg-Thr-Asp-Val-Gly-Ala-Gly-Thr-Pro-NH2 [Elcatonin] : provide His-prenylation efficiency (LC/MS)
5
